target: furin, P09958; test: furin cleavage Z-score vs untreated control; higher = more cleavage, active = 3.5 or more, inactive = 1 or less, 8 variable residues between constant flanks; settings: 30 min;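 note: purified furin at 1:10 enzyme:substrate in 50 mM HEPES pH 7.5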
Sequence (P09958 whole entry): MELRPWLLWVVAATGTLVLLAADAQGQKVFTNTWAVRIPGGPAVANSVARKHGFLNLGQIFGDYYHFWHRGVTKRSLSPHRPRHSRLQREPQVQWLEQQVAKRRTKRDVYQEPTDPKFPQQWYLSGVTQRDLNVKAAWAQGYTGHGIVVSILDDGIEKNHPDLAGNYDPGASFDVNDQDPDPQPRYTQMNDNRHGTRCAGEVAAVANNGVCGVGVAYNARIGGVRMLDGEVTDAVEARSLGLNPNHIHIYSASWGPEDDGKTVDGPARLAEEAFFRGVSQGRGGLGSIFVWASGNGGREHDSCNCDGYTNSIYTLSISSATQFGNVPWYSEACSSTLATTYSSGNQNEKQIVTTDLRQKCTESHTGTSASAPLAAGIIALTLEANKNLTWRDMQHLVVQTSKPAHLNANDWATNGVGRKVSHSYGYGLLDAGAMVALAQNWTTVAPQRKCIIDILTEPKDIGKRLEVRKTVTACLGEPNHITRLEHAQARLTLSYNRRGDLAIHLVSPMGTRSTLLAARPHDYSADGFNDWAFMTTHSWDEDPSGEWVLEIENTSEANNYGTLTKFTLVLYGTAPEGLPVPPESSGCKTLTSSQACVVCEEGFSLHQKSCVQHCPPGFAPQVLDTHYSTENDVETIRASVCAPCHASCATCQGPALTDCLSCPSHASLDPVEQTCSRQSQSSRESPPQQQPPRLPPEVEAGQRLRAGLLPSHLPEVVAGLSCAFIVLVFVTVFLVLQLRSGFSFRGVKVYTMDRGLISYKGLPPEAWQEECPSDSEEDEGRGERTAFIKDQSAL
This is one part of the list. No count for the full screen is at hand.
Assign furin cleavage Z-score to each entry below.
Answers are plain numbers.

Solved entries:
- biosequence: "CAVVCCSPSYAGNASASA [HC2059]"
  number: -0.572
- biosequence: "CATDPCSGSWAGNASASA [HC1851]"
  number: -1.08
- biosequence: "CALLTRIPGFAGNASASA [FS-3146]"
  number: -0.495

Turning to the following sequence.
Entry CARPERKRRDAGNASASA [FS-1066] : reported furin cleavage Z-score = ? 10.6
